protocol-summary: NCI Yeast Anticancer Drug Screen. Data for the cln2 rad14 strain (AID 165);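 also: 0% = growth equal to vehicle treated cultures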
condition-info: S. cerevisiae cln2 rad14 strain, at 50.0 µM, active compounds read high
The panel holds about 79,000 compounds, 15% with a hit somewhere; the sample as a whole holds those more often.
Let's look at some compounds and their measured growth inhibition.
Number only, in %; omit the unit.

- compound: "CCCCOC(=O)c1c(C)c(C)cc(C)c1C"
  growth inhibition (%): 12.5

Attention now turns to another entry.
For the compound shown here, CC(=O)N1N=C(c2ccc(OCC(O)CN3CCN(CC(O)COc4ccc(C5=NN(C(C)=O)C(c6ccccc6)C5)cc4)CC3)cc2)CC1c1ccccc1 (stereo not drawn) , give the reported growth inhibition.
-30.4

* * *

protocol-summary: NCI Yeast Anticancer Drug Screen. Data for the rad50 strain (AID 155);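 also: 0% = growth of vehicle-only cultures of the same strain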
condition-info: S. cerevisiae rad50 strain growth inhibition; at 50.0 µM
Compounds without any hit were thinned out: in the full panel of roughly 79,000, 15% have a hit. Active and inactive are the calls of the source. No stated cut-off is given here; in the data, active means growth inhibition above about 70%; inactive means the rest.
Outcomes you can answer with include only these: active, inactive

Some entries whose results are on file:
- compound: "NCCC(=O)NCCSSCCNC(=O)CCN"
  class-name: "inactive"
- compound: "CC(C)Oc1ccc(C(N)=S)c2ccccc12"
  class-name: "inactive"
- compound: "CC/C(=N\\NS(=O)(=O)c1ccc(C)cc1)c1ccc(Br)cc1"
  class-name: "inactive"
- compound: "C(=C\\c1ccc(-c2ccccc2)cc1)/c1ccc(-c2ccccc2)cc1"
  class-name: "inactive"

Per the assay record, what outcome was assigned to `CC1=Nc2c(C#N)ncn2N=C(C)C1` ?
inactive

Could you kindly confirm the outcome this assay logged for CN1c2ccccc2N(C(=O)c2ccc([N+](=O)[O-])cc2)C(CC(=O)O)c2cccn21 (stereo unspecified) ?
inactive

Recorded test outcome, item `COc1c(C)c(C)c(OC(C)=O)c(C)c1COC(C)=O`
inactive

Give the logged outcome of this assay for the following compound: `O=C(O)c1n[nH]c2ccccc12`
inactive

Please let me know the test result on file for `CC[CH2][Sn]([CH2]CC)([O]C(=O)Cc1ccc(F)cc1)[O][Sn]([CH2]CC)([CH2]CC)[O]C(=O)Cc1ccc(F)cc1` .
active

Called result for `O=C(O)C1CCN(C(=O)Cc2ccccc2)CC1`
inactive

Please state the recorded outcome for this compound: `O=C(O)CCCN1CCCCC1`
inactive

Entry `CN(C(=O)Cl)c1ccccc1` : call = ?
inactive

Recorded test call requested for `OCc1ccccc1CN1CCCC1`
inactive

Which outcome was entered for the compound `CC(=O)N(C)CCCCCCN(C)C(C)=O` in this test?
inactive

GET /call?item= `Nc1cc(=O)n(-c2ccccc2)nc1Cl` returns the recorded outcome of this test.
inactive

Any idea what this test logged for `C=CCn1c(=O)c(C(=O)Nc2nc(C34CC5CC(CC(C5)C3)C4)cs2)c(O)c2ccccc21` ?
inactive

* * *

protocol-summary: NCI Yeast Anticancer Drug Screen. Data for the mec2-1 strain (AID 157)
condition-info: S. cerevisiae mec2-1 strain, at 50.0 µM, active compounds read high
Compounds without any hit were thinned out: in the full panel of roughly 79,000, 15% have a hit.
value-type: growth inhibition (%)
Please state the figure in %; there is no need to write the unit.

- compound: "O=S(=O)(O)SCCNCCCCc1ccccc1"
  number: -3

GET /values?readout=growth inhibition&item= `CCNc1ccc(S(=O)(=O)O)cc1C(=O)O`
4.05

// lookup growth inhibition for `COc1cc2c(SCCN(C)C)nc3ccccc3c2c2ccccc12`
92.3

Please give the measured growth inhibition for this compound: CCOC(=O)/C(=C/c1cn(C(C)=O)c2ccccc12)P(C)(=O)OCC (stereo not drawn)
52.5

What value of measured growth inhibition is listed for Oc1ccccc1C1SC(c2ccccc2O)SC(c2ccccc2O)S1 (stereo not drawn) ?
96

growth inhibition lookup needed for `O=C1c2ccccc2C(C(c2ccccc2)c2ccccc2)c2ccccc21` , thanks.
-18.6

Recorded growth inhibition for `O=C1CC(=O)N(C=C2C(=O)NC(=O)NC2=O)C(=S)N1` , please?
-2.15

I would be grateful if you could share the reported growth inhibition for `CCCN(CCC)S(=O)(=O)c1ccc(NC(=O)OC(c2ccccc2)(c2ccccc2)c2ccccc2)cc1` .
-4.3
